# Test system: HL-60
# assay_notes: In vitro antiproliferative activity (MTT), HL-60
# Format: cell-based
# run_conditions: Homo sapiens, tumor cell proliferation, 72 h, mean ± SE
measure: IC50 (nM)
Express the result in nM but write the number alone.

Worked cases, answers included:
>  <compound>
CCOc1ccc(-c2nccn2-c2cc(OC)c(OC)c(OC)c2)cc1 [Compound 4k]

>  <IC50 [nM]>
4.8

$$$$
>  <compound>
COc1cc(-n2ccnc2-c2ccc(C)cc2)cc(OC)c1OC [Compound 4a]

>  <IC50 [nM]>
2100

$$$$
>  <compound>
COc1cc(-n2ccnc2-c2ccc3ccccc3c2)cc(OC)c1OC [Compound 3c, reference compound]

>  <IC50 [nM]>
24

$$$$
>  <compound>
COc1ccc(-c2nccn2-c2cc(OC)c(OC)c(OC)c2)cc1C [Compound 4f]

>  <IC50 [nM]>
413

$$$$
>  <compound>
COc1ccc(-c2nccn2-c2cc(OC)c(OC)c(OC)c2)cc1F [Compound 4d]

>  <IC50 [nM]>
29

$$$$

Turning now to a further compound:
Checklist item: IC50 tested on HL-60, entry CCOc1ccc(-c2nccn2-c2cc(OC)c(OC)c(OC)c2)cc1Cl [Compound 4o] , value?
1.8

----------
# System: HL-60
# assay_notes: In vitro antiproliferative activity (MTT), HL-60
# Format: cell-based
# run_conditions: Homo sapiens, tumor cell proliferation, 72 h, mean ± SE
measure: IC50

Illustrative cases are given below, each with its answer.
>  <molecule>
CCOc1ccccc1-c1nccn1-c1cc(OC)c(OC)c(OC)c1

>  <test_value>
> 10000 nM

$$$$
>  <molecule>
CCSc1ccc(-c2nccn2-c2cc(OC)c(OC)c(OC)c2)cc1

>  <test_value>
12 nM

$$$$
>  <molecule>
COc1ccc(-c2nccn2-c2cc(OC)c(OC)c(OC)c2)cc1 [Compound 3b, reference compound]

>  <test_value>
4770 nM

$$$$

Please turn your attention to the following entry.
Look up IC50 for this molecule: CCc1ccc(-c2nccn2-c2cc(OC)c(OC)c(OC)c2)cc1
4800 nM

----------
Each entry below lists one item and its recorded IC50 value.
# Test system: RS4;11
# assay_notes: In vitro antiproliferative activity (MTT), RS4;11
# Assay type: cell-based
# run_conditions: Homo sapiens, tumor cell proliferation, 72 h, mean ± SE

Worked set:
>  <compound>
CCc1ccc(-c2nccn2-c2cc(OC)c(OC)c(OC)c2)cc1 [Compound 4b]

>  <test_value>
5680 nM

$$$$
>  <compound>
CCOc1ccc(-c2nccn2-c2cc(OC)c(OC)c(OC)c2)cc1Cl [Compound 4o]

>  <test_value>
1.2 nM

$$$$
>  <compound>
COc1cc(-n2ccnc2-c2ccc3ccccc3c2)cc(OC)c1OC [Compound 3c, reference compound]

>  <test_value>
62.3 nM

$$$$
>  <compound>
COc1ccc(-c2nccn2-c2cc(OC)c(OC)c(OC)c2)cc1Cl [Compound 4e]

>  <test_value>
715 nM

$$$$
>  <compound>
CCCOc1ccc(-c2nccn2-c2cc(OC)c(OC)c(OC)c2)cc1 [Compound 4q]

>  <test_value>
91 nM

$$$$
>  <compound>
COc1ccc(-c2nccn2-c2cc(OC)c(OC)c(OC)c2)cc1 [Compound 3b, reference compound]

>  <test_value>
5400 nM

$$$$
>  <compound>
COc1cc(-n2ccnc2-c2ccc(C)cc2)cc(OC)c1OC [Compound 4a]

>  <test_value>
> 10000 nM

$$$$
>  <compound>
CCOc1ccc(-c2nccn2-c2cc(OC)c(OC)c(OC)c2)cc1 [Compound 4k]

>  <test_value>
34.7 nM

$$$$
>  <compound>
COc1cc(-n2ccnc2-c2ccc(OC(F)(F)F)cc2)cc(OC)c1OC [Compound 4j]

>  <test_value>
> 10000 nM

$$$$
>  <compound>
COc1ccc(-c2nccn2-c2cc(OC)c(OC)c(OC)c2)cc1C [Compound 4f]

>  <test_value>
475 nM

$$$$

Here's the next entry for you.
Look up IC50: CCOc1cccc(-c2nccn2-c2cc(OC)c(OC)c(OC)c2)c1 [Compound 4l]
> 10000 nM

The reported numbers originate from paper PMC4877593.
